test system: HIV-2 (Rod); assay: XTT cytoprotection assay, HIV-2 (Rod/CEM-SS); format: cell-based
Attribute: EC50

{"MOLECULE": "NC(=O)C1CN1C(=O)c1ccccc1SC(=O)NC1CCCCC1 (centres unmarked)", "EC50, nM": 104}
{"MOLECULE": "Cc1cn([C@H]2C[C@H](N=[N+]=[N-])[C@@H](CO)O2)c(=O)[nH]c1=O [AZT, 3′-azido-2′, 3′-dideoxythymidine, reference compound]", "EC50, nM": 17}

----------
assay: Hydrolysis assay (relative rates of hydrolysis); format: in vitro ADME

{"COMPOUND": "Cc1ccccc1C(=O)Sc1ccccc1C(=O)NCCC(N)=O", "LT_GT_EQ": "=", "half-life (h)": 6.8}
{"COMPOUND": "CC(C)(C)c1ccc(C(=O)Sc2ccccc2C(=O)NCCC(N)=O)cc1", "LT_GT_EQ": ">", "half-life (h)": 8.33}
{"COMPOUND": "COc1ccc(C(=O)Sc2ccccc2C(=O)NCCC(N)=O)cc1OC", "LT_GT_EQ": "=", "half-life (h)": 4.07}
{"COMPOUND": "COc1cc(OC)cc(C(=O)Sc2ccccc2C(=O)NCCC(N)=O)c1", "LT_GT_EQ": "=", "half-life (h)": 7.75}
{"COMPOUND": "Cc1cccc(C(=O)NCCC(N)=O)c1SC(=O)c1ccccc1", "LT_GT_EQ": "=", "half-life (h)": 7.02}
